target.or.system: 17-beta-hydroxysteroid dehydrogenase type 3 (Rattus norvegicus) (UniProt O54939)
Sequence (whole entry): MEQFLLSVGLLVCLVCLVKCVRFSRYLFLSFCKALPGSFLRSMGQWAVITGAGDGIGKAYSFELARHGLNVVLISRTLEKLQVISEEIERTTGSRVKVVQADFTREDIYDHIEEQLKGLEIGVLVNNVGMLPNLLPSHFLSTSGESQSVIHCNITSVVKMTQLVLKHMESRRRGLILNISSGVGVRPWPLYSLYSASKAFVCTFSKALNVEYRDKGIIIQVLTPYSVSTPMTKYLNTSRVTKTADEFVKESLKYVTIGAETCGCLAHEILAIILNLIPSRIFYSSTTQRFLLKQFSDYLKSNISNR
assay.method.text: Inhibition of 17beta-HSD3 in rat testes microsomes using [14C]-4-androstene-3,17-dione as substrate measured based on 18% of initial enzyme transformation at 0.1 uM after 2 hrs
condition.details: Testis
Use 40% as the dividing line for inhibition, with the line itself on the Satisfied side and lower values as Not satisfied.

chemical.structure: C[C@]12CC[C@@]3(C[C@@H]1CC[C@@H]1[C@@H]2CC[C@]2(C)C(=O)CC[C@@H]12)CN(Cc1ccc(C(F)(F)F)cc1C(F)(F)F)CC(=O)O3
classification: Satisfied
--
chemical.structure: C[C@]12CC[C@]3(CNCC(=O)O3)C[C@@H]1CC[C@@H]1[C@@H]2CC[C@]2(C)C(=O)CC[C@@H]12
classification: Not satisfied
--
chemical.structure: C[C@]12CC[C@@]3(C[C@@H]1CC[C@@H]1[C@@H]2CC[C@]2(C)C(=O)CC[C@@H]12)CN(Cc1ccc(I)cc1)CC(=O)O3
classification: Satisfied
--
chemical.structure: COC(=O)[C@@H](CC(C)C)N1C[C@]2(CC[C@@]3(C)[C@@H](CC[C@@H]4[C@@H]3CC[C@]3(C)C(=O)CC[C@@H]43)C2)OC1=O
classification: Satisfied
--
chemical.structure: C[C@]12CC[C@@]3(C[C@@H]1CC[C@@H]1[C@@H]2CC[C@]2(C)C(=O)CC[C@@H]12)CN(Cc1ccccc1C(F)(F)F)CC(=O)O3
classification: Satisfied

---

Attribute: inhibition
target.or.system: 17-beta-hydroxysteroid dehydrogenase type 3 (Rattus norvegicus)
assay.method.text: Inhibition of 17beta-HSD3 in rat testes microsomes using [14C]-4-androstene-3,17-dione as substrate measured based on 18% of initial enzyme transformation at 0.1 uM after 2 hrs
condition.details: Testis
quantity.name: inhibition (%)

chemical.structure: C[C@]12CC[C@@]3(C[C@@H]1CC[C@@H]1[C@@H]2CC[C@]2(C)C(=O)CC[C@@H]12)CN(C(=O)c1ccc(C(F)(F)F)cc1)CC(=O)O3
observed.measurement: 45.4

chemical.structure: C[C@]12CC[C@@]3(C[C@@H]1CC[C@@H]1[C@@H]2CC[C@]2(C)C(=O)CC[C@@H]12)CN(Cc1ccccc1)CC(=O)O3
observed.measurement: 56

chemical.structure: C[C@]12CC[C@@]3(C[C@@H]1CC[C@@H]1[C@@H]2CC[C@]2(C)C(=O)CC[C@@H]12)CN(S(=O)(=O)c1ccc(C(F)(F)F)cc1)CC(=O)O3
observed.measurement: 48.6

chemical.structure: C[C@]12CC[C@@]3(C[C@@H]1CC[C@@H]1[C@@H]2CC[C@]2(C)C(=O)CC[C@@H]12)CN(Cc1ccc2ccccc2c1)CC(=O)O3
observed.measurement: 88.3

chemical.structure: CC(C)C[C@H]1NC[C@]2(CC[C@@]3(C)[C@@H](CC[C@@H]4[C@@H]3CC[C@]3(C)C(=O)CC[C@@H]43)C2)OC1=O
observed.measurement: 17.9

chemical.structure: C[C@]12CC[C@@]3(C[C@@H]1CC[C@@H]1[C@@H]2CC[C@]2(C)C(=O)CC[C@@H]12)CN(Cc1cc(C(F)(F)F)cc(C(F)(F)F)c1)CC(=O)O3
observed.measurement: 61.6
